B1: ZNF511 (parent)
chain: YEHHYHTLHGNVCSFCKRAFPSGH

variants of: B1; test: protein stability index of a GFP-peptide fusion (GPS, HEK-293T) (PSI 1-6); higher = more stable; settings: c terminus: a fixed tail appended;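 also: lentivirally expressed fusions sorted by FACS into six bins by GFP to DsRed ratio, PSI derived from sequencing read proportions per bin multiplied by bin number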
quantity-kind: protein stability index

Below are worked cases with known answers.
mutation-label: E2I
protein stability index: 2.34
//
mutation-label: S14K
protein stability index: 2.3
//
mutation-label: G23R
protein stability index: 1.98
//
mutation-label: H4T
protein stability index: 1.95
//
mutation-label: T7C
protein stability index: 2.77

Entry `G10K` — recorded protein stability index = 2.76

Entry `S14F` — recorded protein stability index = 2.03
